Test: Clearance in mouse at 2 mg/kg, iv administered as infusion or 2 mg/kg, po via gavage measured up to 24 hrs by LC-MS analysis
Format: ADME, organism-based
Conditions: in vivo
PARAMETER MEASURED: clearance (mL/min/kg)
Give your result in mL/min/kg as a bare value.

Ask: Which clearance is reported for this molecule? CC(C)Nc1cc(Nc2ccn3nccc3n2)ncc1C(=O)NC[C@@H](F)C(C)(C)O
Result: 33

###

Test: AUC in mouse at 10 mg/kg, po via gavage measured up to 24 hrs by LC-MS analysis
Type: ADME, organism-based
Set-up: time < 24 hr, dose 10 mg/kg, route oral
Details: in vivo
PARAMETER MEASURED: AUC at 24 h (µM·h)
Give your result in µM·h as a bare value.

Ask: Which AUC at 24 h is reported for this compound? CC(C)(O)[C@H](F)CNC(=O)c1cnc(Nc2ccc3ncsc3c2)cc1NC1CC1
Result: 3.3

###

Experiment: AUC in mouse at 5 mg/kg, po via gavage measured up to 24 hrs by LC-MS analysis
Format: ADME, organism-based
Design: time < 24 hr, dose 5 mg/kg, route oral
Settings: in vivo
PARAMETER MEASURED: AUC at 24 h
Answer format: number, then unit.

Ask: Which AUC at 24 h is reported for this compound? CC(C)Nc1cc(Nc2nc3ccnn3cc2F)ncc1C(=O)NC[C@@H](F)C(C)(C)O
Result: 2.4 µM·h

###

Assay: Clearance in mouse at 2 mg/kg, iv administered as infusion or 3 mg/kg, po via gavage measured up to 24 hrs by LC-MS analysis
Assay type: ADME, organism-based
Conditions: in vivo
PARAMETER MEASURED: clearance
Answer format: number, then unit.

Ask: Which clearance is reported for this compound? CC(C)Nc1cc(Nc2ccc3nonc3c2)ncc1C(=O)NC[C@@H](F)C(C)(C)O
Result: 14 mL/min/kg

###

Target: Tyrosine-protein kinase Lck (Homo sapiens)
Sequence (P06239 whole entry): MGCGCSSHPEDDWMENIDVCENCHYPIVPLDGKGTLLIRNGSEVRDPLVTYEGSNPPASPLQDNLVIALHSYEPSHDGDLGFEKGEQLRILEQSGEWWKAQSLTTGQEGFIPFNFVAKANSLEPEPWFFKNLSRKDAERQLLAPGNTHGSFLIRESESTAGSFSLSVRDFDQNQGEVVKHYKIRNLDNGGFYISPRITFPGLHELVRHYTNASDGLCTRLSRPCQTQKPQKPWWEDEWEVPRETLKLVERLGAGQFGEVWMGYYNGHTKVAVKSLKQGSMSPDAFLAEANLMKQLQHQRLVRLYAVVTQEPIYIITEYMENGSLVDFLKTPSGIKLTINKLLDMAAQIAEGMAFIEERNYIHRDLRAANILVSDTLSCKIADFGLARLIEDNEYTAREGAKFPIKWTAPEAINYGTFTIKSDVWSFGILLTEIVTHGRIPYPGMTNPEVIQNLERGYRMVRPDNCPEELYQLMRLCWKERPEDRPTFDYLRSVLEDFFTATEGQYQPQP
Assay: Inhibition of N-terminal His6-tagged human full length recombinant LCK expressed in baculovirus infected Sf21 cells
PARAMETER MEASURED: IC50

Ask: Which IC50 is reported for this compound? CC(C)Nc1cc(Nc2nc3ccnn3cc2F)ncc1C(=O)NC[C@@H](F)C(C)(C)O
Result: > 2 µM

###

Molecular target: Interleukin-1 receptor-associated kinase 4 (Homo sapiens, UniProt Q9NWZ3)
Sequence (Q9NWZ3 whole entry): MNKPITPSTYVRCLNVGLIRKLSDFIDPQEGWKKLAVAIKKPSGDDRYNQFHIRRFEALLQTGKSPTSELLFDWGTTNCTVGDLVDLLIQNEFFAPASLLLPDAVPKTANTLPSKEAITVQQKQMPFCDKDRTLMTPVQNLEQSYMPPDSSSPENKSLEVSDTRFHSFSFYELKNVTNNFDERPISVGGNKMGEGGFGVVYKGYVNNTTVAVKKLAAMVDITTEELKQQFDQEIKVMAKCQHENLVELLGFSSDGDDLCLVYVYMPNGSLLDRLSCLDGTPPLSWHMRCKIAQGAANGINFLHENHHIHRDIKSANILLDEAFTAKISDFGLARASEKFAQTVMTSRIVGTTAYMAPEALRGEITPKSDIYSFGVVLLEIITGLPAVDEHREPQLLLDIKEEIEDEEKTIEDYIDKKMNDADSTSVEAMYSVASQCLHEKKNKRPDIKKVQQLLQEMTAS
Test: Inhibition of IRAK4 (unknown origin) using FL-IPTSPITTTYFFFKKK peptide and ATP as substrate incubated for 60 mins by fluorescence based caliper assay
Binary call on IC50 with cut-off 9 nM: strictly below means criterion met, and equality or higher means criterion not met.

Solved cases below.
                                  structure     assigned_label
0    CCNC(=O)c1cnc(Nc2ccc3ncsc3c2)cc1NC(C)C  criterion not met
1  CC(C)Nc1cc(Nc2nc3ccnn3cc2F)ncc1C(=O)NC[C@@H](F)C(C)(C)O      criterion met
2   CCCNC(=O)c1cnc(Nc2ccc3ncsc3c2)cc1NC(C)C  criterion not met
3  CC(C)(O)[C@H](F)CNC(=O)c1cnc(Nc2ccc3ncsc3c2)cc1NC1CC1      criterion met
4  CC(C)Nc1cc(Nc2ccn3nccc3n2)ncc1C(=O)NC[C@@H](F)C(C)(C)O      criterion met

Ask: Criterion: IC50 strictly below 9 nM. Is it met by CC(C)Nc1cc(Nc2ccc3ncsc3c2)ncc1C(=O)NC[C@@H](F)C(C)(C)O ?
Result: criterion met

Ask: Now try CCCCNC(=O)c1cnc(Nc2ccc3ncsc3c2)cc1NC(C)C .
Result: criterion met

Ask: Now try CC(C)Nc1cc(Nc2ccc3ncsc3c2)ncc1C(=O)NC[C@@H](C)C(C)(C)O .
Result: criterion not met

Ask: Now try Cc1nc2ccc(Nc3cc(NC(C)C)c(C(=O)NC[C@@H](F)C(C)(C)O)cn3)cc2s1 .
Result: criterion met

Ask: Now try CC(C)Nc1cc(Nc2ccc3nonc3c2)ncc1C(=O)NC[C@@H](F)C(C)(C)O .
Result: criterion met

Source listed as ChEMBL document CHEMBL4622963.
